Measured pEC50, listed per entry.
- Measured Target: α4β1 (VLA-4) (Homo sapiens, UniProt P05556+P13612)
- Construct: the cells expressed the appropriate integrin receptor either endogenously (Jurkat/α4β1, K562/α5β1, Jurkat (a4-)/αLβ2, HSB/αLβ2)
- Sequence (P13612 34-1032): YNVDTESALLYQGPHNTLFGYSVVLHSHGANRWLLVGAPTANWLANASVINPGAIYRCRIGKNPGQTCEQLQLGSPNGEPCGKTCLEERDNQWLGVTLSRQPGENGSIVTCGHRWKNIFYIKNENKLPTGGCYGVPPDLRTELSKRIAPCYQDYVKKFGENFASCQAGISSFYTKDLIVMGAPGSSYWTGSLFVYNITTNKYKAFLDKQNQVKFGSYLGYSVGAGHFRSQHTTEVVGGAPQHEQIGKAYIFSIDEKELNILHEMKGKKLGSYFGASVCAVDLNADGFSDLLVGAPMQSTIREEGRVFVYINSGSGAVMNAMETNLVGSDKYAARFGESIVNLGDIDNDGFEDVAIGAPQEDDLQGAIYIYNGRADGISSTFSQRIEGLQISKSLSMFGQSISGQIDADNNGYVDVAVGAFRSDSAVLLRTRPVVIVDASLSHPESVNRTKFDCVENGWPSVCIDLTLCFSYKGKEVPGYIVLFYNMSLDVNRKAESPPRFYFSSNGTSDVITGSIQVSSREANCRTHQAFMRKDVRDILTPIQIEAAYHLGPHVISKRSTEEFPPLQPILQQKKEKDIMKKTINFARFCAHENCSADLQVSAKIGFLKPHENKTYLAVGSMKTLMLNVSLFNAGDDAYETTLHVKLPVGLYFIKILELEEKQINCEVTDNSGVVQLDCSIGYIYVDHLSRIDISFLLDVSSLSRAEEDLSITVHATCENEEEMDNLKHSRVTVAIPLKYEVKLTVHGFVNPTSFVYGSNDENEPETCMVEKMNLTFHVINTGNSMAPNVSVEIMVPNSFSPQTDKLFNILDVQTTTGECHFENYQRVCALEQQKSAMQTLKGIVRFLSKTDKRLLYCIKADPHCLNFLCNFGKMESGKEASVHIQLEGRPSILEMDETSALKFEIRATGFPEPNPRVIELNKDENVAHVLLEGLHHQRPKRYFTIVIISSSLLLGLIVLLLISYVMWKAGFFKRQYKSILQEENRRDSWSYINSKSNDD
- Sequence (P05556 21-798): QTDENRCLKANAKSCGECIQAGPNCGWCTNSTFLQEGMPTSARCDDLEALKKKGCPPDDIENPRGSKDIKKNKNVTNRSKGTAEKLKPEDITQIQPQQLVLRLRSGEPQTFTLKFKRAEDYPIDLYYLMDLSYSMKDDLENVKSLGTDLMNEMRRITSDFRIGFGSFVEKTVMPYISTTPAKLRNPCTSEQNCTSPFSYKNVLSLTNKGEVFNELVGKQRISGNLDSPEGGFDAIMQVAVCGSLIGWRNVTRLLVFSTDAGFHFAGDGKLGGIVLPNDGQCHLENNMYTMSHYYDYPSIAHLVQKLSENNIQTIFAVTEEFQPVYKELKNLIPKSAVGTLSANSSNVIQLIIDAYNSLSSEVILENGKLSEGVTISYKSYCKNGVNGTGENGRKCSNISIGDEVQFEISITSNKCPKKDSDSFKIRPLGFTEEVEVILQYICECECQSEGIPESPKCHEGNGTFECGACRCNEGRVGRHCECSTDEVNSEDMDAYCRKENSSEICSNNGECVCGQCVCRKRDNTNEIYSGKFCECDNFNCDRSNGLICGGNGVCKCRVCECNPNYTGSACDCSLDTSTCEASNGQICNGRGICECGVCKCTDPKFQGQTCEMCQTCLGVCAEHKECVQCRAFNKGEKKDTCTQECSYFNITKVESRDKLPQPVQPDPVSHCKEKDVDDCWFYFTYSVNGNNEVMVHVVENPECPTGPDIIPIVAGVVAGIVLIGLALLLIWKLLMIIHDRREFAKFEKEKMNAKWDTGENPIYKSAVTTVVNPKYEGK
- Protocol Notes: Static cell adhesion assay, α4β1-mediated adhesion to VCAM-1
- Condition Summary: Jurkat cells on sub-optimal VCAM-1 coating; PBS, 1 mM MgCl2, 50% FBS; read-out: Activity (EC50) in enhancing adhesion mediated by α4β1 (VLA-4)
pEC50: −log10 of the molar value.
Quantity Measured: pEC50

# Structure As Smiles, Measured Result
measured = [
    ("CCCC[C@@H](COC(=O)N(Cc1cccs1)Cc1cccs1)NC(=O)N[C@@H](CC(=O)OC)c1ccc2c(c1)OCO2", 4.49),
    ("O=C(OCCOCCOCCOC(=O)N(Cc1cccs1)Cc1cccs1)N(Cc1cccs1)Cc1cccs1", 4.85),
    ("COc1cccc(CN(Cc2cccc(OC)c2)C(=O)CCCCC(=O)N(Cc2cccc(OC)c2)Cc2cccc(OC)c2)c1", 4.96),
    ("COc1ccc(CN(Cc2ccc(OC)cc2)C(=O)CCCCC(=O)N(Cc2ccc(OC)cc2)Cc2ccc(OC)cc2)cc1", 4.96),
]
